Test: solvent given as SMILES
Settings: in CCCCCC
Criterion: fluorescence lifetime meeting or surpassing 6 ns. Met: true. Not met: false.

Challenge: State whether the measured fluorescence lifetime reaches 6 ns, counting equality as reaching it, for "Cc1ccc(C2=[N+]3C(=Cc4c(C)cc(C)n4[B-]3(F)F)c3ccccc32)[nH]1"
Response given: true

Challenge: How about this compound: "COc1ccc(N2c3cc(OC)ccc3N=c3cc4c(cc32)=Nc2cc(C(C)(C)C)cc(C(C)(C)C)c2O4)cc1"
Response given: false

Challenge: How about this compound: "Cc1ccc2ccc3c(C)ccc4ccc1c2c43"
Response given: true

Challenge: How about this compound: "CC1=CC(C)=[N+]2C1=Cc1c3ccccc3c(C#Cc3ccsc3)n1[B-]2(F)F"
Response given: false

Challenge: How about this compound: "CN(c1ccccc1)c1ccc(/C=C/c2ccccc2)cc1"
Response given: false

Challenge: How about this compound: "c1cc2ccc3cccc4c(-c5cc(-c6nccs6)nc(-c6nccs6)c5)cc(c1)c2c34"
Response given: false

Challenge: How about this compound: "Cc1cc(C)c(B(c2c(C)cc(C)cc2C)c2cc3cccc4c(B(c5c(C)cc(C)cc5C)c5c(C)cc(C)cc5C)cc5cccc2c5c34)c(C)c1"
Response given: false

Challenge: How about this compound: "CCOC(=O)c1cc(C)n2nc(-c3ccccc3)ccc12"
Response given: true

Challenge: How about this compound: "CCC1(CC)c2cc(-c3ccc(-c4ccc5c(c4)C(CC)(CC)c4cc(C(C)(C)C)ccc4-5)cc3)ccc2-c2ccc(C(C)(C)C)cc21"
Response given: false

Challenge: How about this compound: "CCCCCCCCOc1ccc(C2=C3C(C)=C(C#Cc4ccc(B(c5c(C)cc(C)cc5C)c5c(C)cc(C)cc5C)cc4)C(C)=[N+]3[B-](F)(F)n3c(C)c(C#Cc4ccc(B(c5c(C)cc(C)cc5C)c5c(C)cc(C)cc5C)cc4)c(C)c32)cc1"
Response given: false

Challenge: How about this compound: COC(=O)C(Cc1ccc2oc(-c3ccc4c(c3)c3ccccc3n4-c3ccccc3)nc2c1)NC(=O)OC(C)(C)C (stereo unspecified)
Response given: false

Challenge: How about this compound: "CC1=C(C(C)(C)C)C(C)=[N+]2C1=C(C)c1c(C)c(C(C)(C)C)c(C)n1[B-]2(F)F"
Response given: false

Challenge: How about this compound: "CC1=C2C=CC=[N+]2[B-](F)(F)n2cccc21"
Response given: true

Challenge: How about this compound: "CC(C)c1ccc2ccc3c(C(C)C)ccc4ccc1c2c43"
Response given: true

Challenge: How about this compound: "c1ccc(-c2c3c(c(-c4ccccc4)c4cc5ccccc5cc24)Cc2c(c(-c4ccccc4)c4cc5ccccc5cc4c2-c2ccccc2)C3)cc1"
Response given: false

Challenge: How about this compound: "CC1=N/C(=C\c2ccc(C#N)c(N(C)C)c2)C(=O)N1C"
Response given: true

Challenge: How about this compound: "COCCN1C(=O)/C(=C/c2cccc(N(C)C)c2)N=C1C"
Response given: true

Challenge: How about this compound: "CCCCCCCCCCCCCCCCOc1cc(C#Cc2ccc3ccccc3c2-c2c(C#Cc3cc(OCCCCCCCCCCCCCCCC)c(C#Cc4ccc(C=C(C#N)C#N)cc4)cc3OCCCCCCCCCCCCCCCC)ccc3ccccc23)c(OCCCCCCCCCCCCCCCC)cc1C#Cc1ccc(C=C(C#N)C#N)cc1"
Response given: false

Challenge: How about this compound: "CCC1(CC)c2cc(-c3ccc(C(C)(C)C)cc3)ccc2-c2ccc(-c3ccc4c(c3)C(CC)(CC)c3cc(-c5ccc6c(c5)C(CC)(CC)c5cc(-c7ccc(C(C)(C)C)cc7)ccc5-6)ccc3-4)cc21"
Response given: false

Challenge: How about this compound: "C(=C\c1ccc2ccccc2c1)/c1ccc(N(c2ccccc2)c2ccccc2)cc1"
Response given: false

Challenge: How about this compound: "CC1=CC(C)=[N+]2C1=Cc1c3ccccc3c(C#Cc3cccs3)n1[B-]2(F)F"
Response given: false

Challenge: How about this compound: "O=C1c2ccccc2C(=O)c2cc(-c3ccc(N(c4ccccc4)c4ccccc4)cc3)ccc21"
Response given: false

Challenge: How about this compound: "CCN(CC)c1ccc(OC)c(C=O)c1"
Response given: true

Challenge: How about this compound: CCN1C(=O)C(C2C(=O)c3c4ccccc4cc4cc5ccccc5c2c34)C(=O)N(CC)C1=S (stereo unspecified)
Response given: true

Challenge: How about this compound: "CCCCCCC(CCCCCC)N1C(=O)c2cccc3c(-c4cc(OC)c(OC)c(OC)c4)ccc(c23)C1=O"
Response given: false

Challenge: How about this compound: "Cn1cccc1-c1ccc(C#N)cc1"
Response given: false

Challenge: How about this compound: "Cc1ccc2ccc3cccc4ccc1c2c34"
Response given: true

Challenge: How about this compound: COC(=O)C(Cc1ccc2oc(-c3ccc(N(C)C)cc3)nc2c1)NC(=O)OC(C)(C)C (stereo unspecified)
Response given: false

Challenge: How about this compound: "c1ccc(-c2nc3c(c4c2-c2ccccc2CC4)-c2ccccc2CC3)cc1"
Response given: false

Challenge: How about this compound: CC(O)CC1=N/C(=C\c2cccc(N(C)C)c2)C(=O)N1C (stereo unspecified)
Response given: true

Challenge: How about this compound: "COC(=O)c1c(C(=O)OC)c2ccc(-c3ccccc3)nn2c1C"
Response given: true

Challenge: How about this compound: "C[Si](C)(C)c1ccc2ccc3c([Si](C)(C)C)ccc4ccc1c2c43"
Response given: true

Challenge: How about this compound: "CCCCCCC(CCCCCC)N1C(=O)c2cccc3c(-c4ccc(-c5ccc(OC)cc5)cc4)ccc(c23)C1=O"
Response given: false

Challenge: How about this compound: COC(=O)C(Cc1ccc2oc(-c3ccc(Nc4ccccc4)cc3)nc2c1)NC(=O)OC(C)(C)C (stereo unspecified)
Response given: false

Challenge: How about this compound: "COC(=O)c1c(C(=O)OC)c2ccc(C)nn2c1C"
Response given: true
